System: HepG2
EXPERIMENTAL_PROTOCOL: cytotoxicity call (relative viability < 0.9)
EXPERIMENTAL_CONTEXT: 10 µM
Screen size: about 39,000 compounds; about 3,300 (8.5%) were called active. What follows is part of a selection rich in actives, with near analogues and random picks from the rest.
Pick one and only one: active, inactive

Asked: Called result for COc1ccc(CN(C)C[C@@H]2OCCCC[C@H](C)Oc3ccc(NS(=O)(=O)c4ccc(OC)cc4)cc3C(=O)N([C@@H](C)CO)C[C@@H]2C)cc1
Given back: active

Asked: Called result for COc1cccc(C(=O)Nc2ccc3c(c2)C(=O)N(C)[C@@H]2CC[C@H](CC(=O)NCC4CC4)O[C@@H]2CO3)c1
Given back: active

Asked: Called result for COc1cccc(C(=O)Nc2ccc3c(c2)C(=O)N(C)[C@@H]2CC[C@H](CC(=O)NCC(F)(F)F)O[C@@H]2CO3)c1
Given back: active

Asked: Called result for COc1ccc(CN(C)C[C@@H]2OCCCC[C@H](C)Oc3ccc(NS(=O)(=O)c4ccc(F)cc4)cc3C(=O)N([C@H](C)CO)C[C@@H]2C)cc1
Given back: active

Asked: Called result for COCC(=O)Nc1ccc2c(c1)C(=O)N(C)[C@@H]1CC[C@H](CC(=O)N3CCc4ccccc4C3)O[C@@H]1CO2
Given back: inactive

Asked: Called result for O=C(O)c1ccc2c(ccc3nn(-c4ccc(/C=C/c5ccc(-n6nc7ccc8cc(C(=O)O)ccc8c7n6)cc5S(=O)(=O)O)c(S(=O)(=O)O)c4)nc32)c1
Given back: inactive

Asked: Called result for COc1ccc(CN(C)C[C@@H]2OCCCC[C@@H](C)Oc3ccc(NS(=O)(=O)c4ccc(F)cc4)cc3C(=O)N([C@@H](C)CO)C[C@H]2C)cc1
Given back: inactive

Asked: Called result for COc1ccc(CN(C)C[C@H]2OCCCC[C@H](C)Oc3ccc(NS(=O)(=O)c4ccc(F)cc4)cc3C(=O)N([C@H](C)CO)C[C@H]2C)cc1
Given back: inactive

Asked: Called result for CN1C(=O)c2cc(NC(=O)c3ccc(F)cc3)ccc2OC[C@H]2O[C@@H](CC(=O)N3CCOCC3)CC[C@H]21
Given back: inactive

Asked: Called result for Cc1ccc(S(=O)(=O)N(C)C[C@@H]2Oc3ccc(NS(C)(=O)=O)cc3C(=O)N([C@@H](C)CO)C[C@H]2C)cc1
Given back: inactive

Asked: Called result for COc1cccc(C(=O)Nc2ccc3c(c2)C(=O)N(C)[C@H]2CC[C@H](CC(=O)NCC4CC4)O[C@@H]2CO3)c1
Given back: inactive

Asked: Called result for O=C(NC[C@@H](O)CO)c1c(I)c(C(=O)NC[C@@H](O)CO)c(I)c(N(CCO)C(=O)CO)c1I
Given back: inactive

Asked: Called result for CN1C(=O)c2cc(NC(=O)c3ccc(F)cc3)ccc2OC[C@H]2O[C@H](CC(=O)N3CCOCC3)CC[C@H]21
Given back: inactive

Asked: Called result for COCC(=O)Nc1ccc2c(c1)C(=O)N(C)[C@H]1CC[C@@H](CC(=O)N3CCc4ccccc4C3)O[C@@H]1CO2
Given back: inactive

* * *

Test system: HepG2
EXPERIMENTAL_PROTOCOL: cytotoxicity call (relative viability < 0.9)
EXPERIMENTAL_CONTEXT: 10 µM
The whole screen tested about 39,000 compounds, of which about 3,300 (8.5%) were called active. The entries come from a sample that favours actives as a whole.
OBSERVATION_TYPE: cytotoxicity call

C[C@@H]1CN([C@@H](C)CO)C(=O)c2cccc(NS(=O)(=O)c3ccc(F)cc3)c2O[C@@H]1CN(C)S(=O)(=O)c1ccc(F)cc1 = active
C[C@H]1CN([C@@H](C)CO)C(=O)c2cccc(NS(=O)(=O)c3ccc(F)cc3)c2O[C@H]1CN(C)S(=O)(=O)c1ccc(F)cc1 = inactive
C[C@H]1[C@H]([Si](C)(C)F)[C@@H](CCO)O[C@]12C(=O)N(Cc1ccccc1)c1ccc(N3C(=O)c4ccccc4Oc4ccccc43)cc12 = inactive
COc1ccc(S(=O)(=O)Nc2ccc3c(c2)C(=O)N([C@H](C)CO)C[C@@H](C)[C@@H](CN(C)S(=O)(=O)c2cccs2)O3)cc1 = inactive
Oc1ccc(Cl)c2cccnc12 = active
COc1ccc([Si](C)(C)[C@H]2[C@H](CCO)O[C@@]3(C(=O)N(Cc4ccccc4)c4ccc(N5C(=O)c6ccccc6Oc6ccccc65)cc43)[C@@H]2C)cc1 = active
O=C(NCc1cccc(F)c1)[C@@H]1[C@@H](CO)[C@@H]2Cn3c(cccc3=O)[C@H]1N2C(=O)c1cnccn1 = inactive
Cc1noc(C)c1NC(=O)N(C)C[C@@H]1Oc2c(NC(=O)C3CCOCC3)cccc2C(=O)N([C@H](C)CO)C[C@H]1C = inactive

Asked: # returns recorded cytotoxicity call (system: HepG2) for Fc1cccc2c(Cl)ccnc12
Given back: inactive

Asked: # returns recorded cytotoxicity call (system: HepG2) for Nc1nc(=O)c2ncn(COC(CO)CO)c2[nH]1
Given back: inactive

Asked: # returns recorded cytotoxicity call (system: HepG2) for O=[N+]([O-])c1ccc(O)c2ncccc12
Given back: active

Asked: # returns recorded cytotoxicity call (system: HepG2) for COc1ccc2c3c([nH]c2c1)[C@H](CO)N(C[C@]13CN(CC2CCCCC2)C1)S(=O)(=O)c1cn(cn1)C
Given back: inactive

* * *

System: HepG2
EXPERIMENTAL_PROTOCOL: cytotoxicity call (relative viability < 0.9)
EXPERIMENTAL_CONTEXT: 10 µM
Among all 39,000 compounds or so, about 3,300 (8.5%) were called active. The sample holds actives, similar compounds and a random draw of the others, so the mix is not that of the screen.
Pick one and only one: 1 = active, -1 = inactive

Asked: Called result for COc1cc(F)c(C(C)C)cc1-c1ccc(C(F)(F)F)cc1CN1C(=O)O[C@H](c2cc(C(F)(F)F)cc(C(F)(F)F)c2)[C@@H]1C
Given back: -1

Asked: Called result for C[C@H](CO)N1C[C@H](C)[C@H](CN(C)Cc2ccc(Cl)c(Cl)c2)Oc2ccc(NC(=O)Nc3ccc(C(F)(F)F)cc3)cc2C1=O
Given back: 1

Asked: Called result for Cc1noc(C)c1NC(=O)N[C@H]1C=C[C@@H](CC(=O)N2CCN(C)CC2)O[C@@H]1CO
Given back: -1

Asked: Called result for O=C(C[C@H]1CC[C@@H]2[C@H](COC[C@@H](O)CN2S(=O)(=O)c2ccc(Oc3ccccc3)cc2)O1)NCCN1CCCCC1
Given back: -1

* * *

Test system: HepG2
EXPERIMENTAL_PROTOCOL: cytotoxicity call (relative viability < 0.9)
EXPERIMENTAL_CONTEXT: 10 µM
Screen size: about 39,000 compounds; about 3,300 (8.5%) were called active. The sample holds actives, similar compounds and a random draw of the others, so the mix is not that of the screen.
Pick one and only one: active, inactive

Asked: Called result for C[C@H](CO)N1C[C@H](C)[C@@H](CN(C)Cc2ccccc2)OCCCC[C@H](C)Oc2ccc(NC(=O)Nc3ccc(F)cc3)cc2C1=O
Given back: active

Asked: Called result for C[C@H](CO)N1C[C@H](C)[C@H](CN(C)Cc2ccc3c(c2)OCO3)OCCCC[C@H](C)Oc2ccc(NC(=O)c3ccccc3)cc2C1=O
Given back: inactive

Asked: Called result for C[C@H](CO)N1C[C@H](C)[C@H](CN(C)Cc2ccccc2)OCCCC[C@H](C)Oc2ccc(NC(=O)Nc3ccc(F)cc3)cc2C1=O
Given back: active

* * *

System: HepG2
EXPERIMENTAL_PROTOCOL: cytotoxicity call (relative viability < 0.9)
EXPERIMENTAL_CONTEXT: 10 µM
In all, about 39,000 compounds went through this assay and about 3,300 (8.5%) were called active. For the sample, actives were picked, then their nearest neighbours and some compounds at random.
Pick one and only one: active, inactive

Asked: Called result for C=CCC[C@@H](Cc1ccc(F)cc1)C(=O)OC[C@@H](Cc1c[nH]c2ccccc12)NC(=O)[C@@H](CC=C)CC(=O)N(CCO)Cc1ccccc1
Given back: active

Asked: Called result for Cc1noc(C)c1S(=O)(=O)N(C)C[C@H]1OCCCC[C@H](C)Oc2ccc(NS(C)(=O)=O)cc2C(=O)N([C@@H](C)CO)C[C@@H]1C
Given back: inactive

Asked: Called result for COc1ccc(NC(=O)Nc2ccc3c(c2)C(=O)N([C@H](C)CO)C[C@H](C)[C@@H](CN(C)CC2CCCCC2)OCCCC[C@H](C)O3)cc1
Given back: inactive

Asked: Called result for C=CCC[C@@H](Cc1ccc(F)cc1)C(=O)OC[C@H](Cc1c[nH]c2ccccc12)NC(=O)[C@@H](CC=C)CC(=O)N(CCO)Cc1ccccc1
Given back: inactive

Asked: Called result for C=CCC[C@H](Cc1ccc(F)cc1)C(=O)OC[C@H](Cc1c[nH]c2ccccc12)NC(=O)[C@@H](CC=C)CC(=O)N(CCO)Cc1ccccc1
Given back: active

Asked: Called result for C=CCC[C@H](Cc1ccc(F)cc1)C(=O)OC[C@@H](Cc1c[nH]c2ccccc12)NC(=O)[C@@H](CC=C)CC(=O)N(CCO)Cc1ccccc1
Given back: active

Asked: Called result for O=C(C1=C[C@H](c2coc3ccccc3c2=O)C[C@H](OCCCCO)O1)N1CCOCCOCCOCCOCC1
Given back: inactive

Each recorded value in this set is attributed to the antibiotic and cytotoxicity screens of Wong et al. (2023).
